Test system: 276233-004-R-J1-PDC complex spheroid viability
experiment: Anticancer human tumor 276233-004-R-J1-PDC patient-derived colon adenocarcinoma cell line growth inhibition [GQUAD]
condition_context: second compound 0.316 µM; first compound 0.0316 µM; active compounds read low
Please respond with reported viability, T/C for every item in the list.
// return numeric value only (unit: %, not printed)

Report viability, T/C for COc1ccc([C@@H](O)c2cc(-c3ncnc4cc(N5CCOCC5)ccc34)c(F)cc2Cl)nn1 + Cc1cnc(CNC(=O)c2c(=O)c3ccc(N4CCCN(C)CC4)nc3n3c2sc2ccccc23)cn1
74.4

Report viability, T/C for C=CCn1c(=O)c2cnc(Nc3ccc(N4CCN(C)CC4)cc3)nc2n1-c1cccc(C(C)(C)O)n1 + CN(C)c1ccc(Nc2c3ccc(NC(=O)CCN4CCCC4)cc3nc3cc(NC(=O)CCN4CCCC4)ccc23)cc1
81.5

Report viability, T/C for C#Cc1c(F)ccc2cc(O)cc(-c3ncc4c(N5CC6CCC(C5)N6)nc(OCC56CCCN5CC(F)C6)nc4c3F)c12 (stereo not drawn) + CN(C)c1ccc(Nc2c3ccc(NC(=O)CCN4CCCC4)cc3nc3cc(NC(=O)CCN4CCCC4)ccc23)cc1
54.7

###

System: 276233-004-R-J1-PDC complex spheroid viability
experiment: Anticancer human tumor 276233-004-R-J1-PDC cell line growth inhibition [GQUAD];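 also: spheroids exposed to drugs for seven days; 100% = DMSO vehicle control viability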
condition_context: second compound 0.316 µM; first compound 0.0316 µM; active compounds read low
experimental_endpoint: viability, T/C (%)
// return numeric value only (unit: %, not printed)

Report viability, T/C for O=c1[nH]cc(F)c(=O)[nH]1 + CN(C)c1ccc(Nc2c3ccc(NC(=O)CCN4CCCC4)cc3nc3cc(NC(=O)CCN4CCCC4)ccc23)cc1
69.1

Report viability, T/C for Cc1cccc(N(C)C(=O)C2C(O)CCN2c2nc(C)cc(C(F)(F)F)c2C#N)c1 (stereo not drawn) + Cc1cnc(CNC(=O)c2c(=O)c3ccc(N4CCCN(C)CC4)nc3n3c2sc2ccccc23)cn1
77.2

Report viability, T/C for COc1ccc([C@@H](O)c2cc(-c3ncnc4cc(N5CCOCC5)ccc34)c(F)cc2Cl)nn1 + Cc1[nH]c2ccc(F)cc2c1-c1nc2c3cccnc3c3ncccc3c2[nH]1
87.8

###

Tested on: 276233-004-R-J1-PDC complex spheroid viability
experiment: Anticancer human tumor 276233-004-R-J1-PDC cell line growth inhibition [GQUAD];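 also: spheroids exposed to drugs for seven days; 100% = DMSO vehicle control viability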
condition_context: second compound 0.0316 µM; first compound 10 µM; active compounds read low
experimental_endpoint: viability, T/C (%)
// return numeric value only (unit: %, not printed)

Report viability, T/C for COc1ncnc(C2CC2)c1-c1ncc2cnn(Cc3ccc(-c4nc(C(F)(F)F)cn4C(C)C)cc3)c2n1 + Cc1[nH]c2ccc(F)cc2c1-c1nc2c3cccnc3c3ncccc3c2[nH]1
76.2

Report viability, T/C for O=c1[nH]cc(F)c(=O)[nH]1 + CN(C)c1ccc(Nc2c3ccc(NC(=O)CCN4CCCC4)cc3nc3cc(NC(=O)CCN4CCCC4)ccc23)cc1
103

Report viability, T/C for CC(=O)O[C@H]1C(=O)[C@@]2(C)[C@H]([C@H](OC(=O)c3ccccc3)[C@]3(O)C[C@H](OC(=O)[C@H](O)[C@@H](NC(=O)c4ccccc4)c4ccccc4)C(C)=C1C3(C)C)[C@]1(OC(C)=O)CO[C@@H]1C[C@@H]2O + Cc1cnc(CNC(=O)c2c(=O)c3ccc(N4CCCN(C)CC4)nc3n3c2sc2ccccc23)cn1
95.8

Report viability, T/C for C#Cc1c(F)ccc2cc(O)cc(-c3ncc4c(N5CC6CCC(C5)N6)nc(OCC56CCCN5CC(F)C6)nc4c3F)c12 (stereo not given) + Cc1cnc(CNC(=O)c2c(=O)c3ccc(N4CCCN(C)CC4)nc3n3c2sc2ccccc23)cn1
57.8

Report viability, T/C for C#Cc1c(F)ccc2cc(O)cc(-c3ncc4c(N5CC6CCC(C5)N6)nc(OCC56CCCN5CC(F)C6)nc4c3F)c12 (stereo not given) + CN(C)c1ccc(Nc2c3ccc(NC(=O)CCN4CCCC4)cc3nc3cc(NC(=O)CCN4CCCC4)ccc23)cc1
36.9

###

Tested on: 276233-004-R-J1-PDC complex spheroid viability
experiment: Anticancer human tumor 276233-004-R-J1-PDC cell line growth inhibition [GQUAD]; active means viability on the fitted dose curve at most 10% of control; inactive means the rest;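 also: spheroids exposed to drugs for seven days; 100% = DMSO vehicle control viability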
condition_context: second compound 0.0316 µM; first compound 10 µM
Mark one answer only. Choices: T for active, F for inactive

Just curious, what result did COc1cc(C2c3cc4c(cc3C(OC3OC5COC(C)OC5C(O)C3O)C3COC(=O)C23)OCO4)cc(OC)c1O (stereo unspecified) + CN(C)c1ccc(Nc2c3ccc(NC(=O)CCN4CCCC4)cc3nc3cc(NC(=O)CCN4CCCC4)ccc23)cc1 get here?
F

Just curious, what result did Cc1cccc(N(C)C(=O)C2C(O)CCN2c2nc(C)cc(C(F)(F)F)c2C#N)c1 (stereo unspecified) + Cc1[nH]c2ccc(F)cc2c1-c1nc2c3cccnc3c3ncccc3c2[nH]1 get here?
F

Just curious, what result did Nc1ccn(C2OC(CO)C(O)C2(F)F)c(=O)n1 (stereo unspecified) + CN(C)c1ccc(Nc2c3ccc(NC(=O)CCN4CCCC4)cc3nc3cc(NC(=O)CCN4CCCC4)ccc23)cc1 get here?
F

Just curious, what result did O=C(NO)c1cnc(N2CCN(S(=O)(=O)c3ccc4ccccc4c3)CC2)nc1 + Cc1cnc(CNC(=O)c2c(=O)c3ccc(N4CCCN(C)CC4)nc3n3c2sc2ccccc23)cn1 get here?
T

Just curious, what result did COc1cccc2c1C(=O)c1c(O)c3c(c(O)c1C2=O)CC(O)(C(=O)CO)CC3OC1CC(N)C(O)C(C)O1 (stereo unspecified) + CN(C)c1ccc(Nc2c3ccc(NC(=O)CCN4CCCC4)cc3nc3cc(NC(=O)CCN4CCCC4)ccc23)cc1 get here?
F

Just curious, what result did COc1ccc([C@@H](O)c2cc(-c3ncnc4cc(N5CCOCC5)ccc34)c(F)cc2Cl)nn1 + CN(C)c1ccc(Nc2c3ccc(NC(=O)CCN4CCCC4)cc3nc3cc(NC(=O)CCN4CCCC4)ccc23)cc1 get here?
F

Just curious, what result did CC1COCCN1c1cc(C2(S(C)(=N)=O)CC2)nc(-c2ccnc3[nH]ccc23)n1 (stereo unspecified) + Cc1cnc(CNC(=O)c2c(=O)c3ccc(N4CCCN(C)CC4)nc3n3c2sc2ccccc23)cn1 get here?
F

Just curious, what result did C=CCn1c(=O)c2cnc(Nc3ccc(N4CCN(C)CC4)cc3)nc2n1-c1cccc(C(C)(C)O)n1 + CN(C)c1ccc(Nc2c3ccc(NC(=O)CCN4CCCC4)cc3nc3cc(NC(=O)CCN4CCCC4)ccc23)cc1 get here?
F

Just curious, what result did CC1COCCN1c1cc(C2(O)CC3CCC(C2)O3)c2cnn(-c3ccn[nH]3)c2n1 (stereo unspecified) + CN(C)c1ccc(Nc2c3ccc(NC(=O)CCN4CCCC4)cc3nc3cc(NC(=O)CCN4CCCC4)ccc23)cc1 get here?
F

Just curious, what result did O=C(c1cc(Cc2n[nH]c(=O)c3ccccc23)ccc1F)N1CCN(C(=O)C2CC2)CC1 + CN(C)c1ccc(Nc2c3ccc(NC(=O)CCN4CCCC4)cc3nc3cc(NC(=O)CCN4CCCC4)ccc23)cc1 get here?
F

Just curious, what result did CC1COCCN1c1cc(-c2ccnn2C)c2ccnc(-c3ccn[nH]3)c2n1 (stereo unspecified) + Cc1[nH]c2ccc(F)cc2c1-c1nc2c3cccnc3c3ncccc3c2[nH]1 get here?
F

###

Test system: 276233-004-R-J1-PDC complex spheroid viability
experiment: Anticancer human tumor 276233-004-R-J1-PDC cell line growth inhibition [GQUAD];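 also: spheroids exposed to drugs for seven days; 100% = DMSO vehicle control viability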
condition_context: second compound 3.16 µM; first compound 1 µM; active compounds read low
Please respond with reported viability, T/C for every item in the list.
// return numeric value only (unit: %, not printed)

Report viability, T/C for C=CCn1c(=O)c2cnc(Nc3ccc(N4CCN(C)CC4)cc3)nc2n1-c1cccc(C(C)(C)O)n1 + Cc1[nH]c2ccc(F)cc2c1-c1nc2c3cccnc3c3ncccc3c2[nH]1
18.1

Report viability, T/C for C=CC(=O)N1CCN(c2nc(=O)n(-c3c(C)ccnc3C(C)C)c3nc(-c4c(O)cccc4F)c(F)cc23)C(C)C1 (stereo not given) + Cc1cnc(CNC(=O)c2c(=O)c3ccc(N4CCCN(C)CC4)nc3n3c2sc2ccccc23)cn1
73.4

Report viability, T/C for CC(=O)O[C@H]1C(=O)[C@@]2(C)[C@H]([C@H](OC(=O)c3ccccc3)[C@]3(O)C[C@H](OC(=O)[C@H](O)[C@@H](NC(=O)c4ccccc4)c4ccccc4)C(C)=C1C3(C)C)[C@]1(OC(C)=O)CO[C@@H]1C[C@@H]2O + Cc1cnc(CNC(=O)c2c(=O)c3ccc(N4CCCN(C)CC4)nc3n3c2sc2ccccc23)cn1
71.1

Report viability, T/C for CCCS(=O)(=O)Nc1ccc(F)c(C(=O)c2c[nH]c3ncc(-c4ccc(Cl)cc4)cc23)c1F + Cc1cnc(CNC(=O)c2c(=O)c3ccc(N4CCCN(C)CC4)nc3n3c2sc2ccccc23)cn1
80.2

Report viability, T/C for CC1COCCN1c1cc(-c2ccnn2C)c2ccnc(-c3ccn[nH]3)c2n1 (stereo not given) + Cc1cnc(CNC(=O)c2c(=O)c3ccc(N4CCCN(C)CC4)nc3n3c2sc2ccccc23)cn1
55.8
